The measurements presented in this section are drawn from the supplement of paper PMC13380429.

Let's look at some compounds and their measured cell viability.
System: Vero E6
assay_comment: cell viability relative to DMSO; higher = less toxic
cond: 72 h; 100 nM
Where a name gives a salt, the structure may show the parent alone.
readout: cell viability (%)

[
  {
    "compound": "O=C(O)P(=O)(O)O",
    "data_value": 98.3
  },
  {
    "compound": "CC(C)(C)NCC(O)c1cc(O)cc(O)c1 (stereo not given) [TERBUTALINE HEMISULFATE]",
    "data_value": 101
  },
  {
    "compound": "S=C(NCc1ccc2c(c1)OCO2)N1CCN(c2ncnc3c2oc2ccccc23)CC1",
    "data_value": 97.9
  },
  {
    "compound": "CC1(C)CCC(C)(C)c2cc(C3(c4ccc(C(=O)O)cc4)OCCO3)ccc21",
    "data_value": 100
  },
  {
    "compound": "CN1[C@@H]2CC[C@H]1C[C@@H](OC(c1ccc(F)cc1)c1ccc(F)cc1)C2",
    "data_value": 100
  },
  {
    "compound": "O=c1cc(N2CCN(c3cccc(C(F)(F)F)c3)CC2)[nH]c(=O)n1C1CCCCC1",
    "data_value": 98.4
  },
  {
    "compound": "O=C(CCCCCCC(=O)Nc1ccccc1)NO",
    "data_value": 103
  },
  {
    "compound": "COc1ccc(C(=O)CC2(O)C(=O)Nc3c(Cl)ccc(Cl)c32)cc1 (stereo not given)",
    "data_value": 102
  },
  {
    "compound": "CN(CCOc1ccc(-c2ccc3c(c2)OCO3)cc1C(C)(C)C)CC(=O)O",
    "data_value": 97.6
  },
  {
    "compound": "CNC(=O)c1ccccc1Sc1ccc2c(/C=C/c3ccccn3)n[nH]c2c1",
    "data_value": 108
  },
  {
    "compound": "O=C1NC(=O)C(c2cnc3ccccn23)=C1c1cn2c3c(cc(F)cc13)CN(C(=O)N1CCCCC1)CC2",
    "data_value": 95.9
  },
  {
    "compound": "COc1ccc2c3c1O[C@H]1C[C@@H](O)C=C[C@@]31CCN(C)C2",
    "data_value": 103
  },
  {
    "compound": "CC12CC3CC(C)(C1)CC(N)(C3)C2 [memantine]",
    "data_value": 105
  },
  {
    "compound": "CCOC(=O)CC(=O)N1CCSC1COc1ccccc1OC (stereo not given)",
    "data_value": 100
  },
  {
    "compound": "[Cl][Ti][Cl].c1cc[cH-]c1.c1cc[cH-]c1 [titanocene-dichloride]",
    "data_value": 93.4
  },
  {
    "compound": "COc1cc2c(cc1OC)[C@@]13CCN4CC5=CCO[C@H]6CC(=O)N2[C@H]1[C@H]6[C@H]5C[C@H]43",
    "data_value": 95.2
  },
  {
    "compound": "COC(=O)[C@H](Cc1cccc(C(=N)N)c1)[C@@H](C)NC(=O)c1ccc(-c2cc[n+]([O-])cc2)cc1",
    "data_value": 94.1
  },
  {
    "compound": "CC(=O)[C@H]1CC[C@H]2[C@@H]3CC[C@H]4C[C@H](O)CC[C@]4(C)[C@H]3C(=O)C[C@]12C",
    "data_value": 99.7
  },
  {
    "compound": "O=C(/C=C/c1cccnc1)NCCCCC1CCN(C(=O)c2ccccc2)CC1",
    "data_value": 2.7
  },
  {
    "compound": "C[N+]1(C)[C@@H]2CC[C@H]1C[C@@H](OC(=O)C(CO)c1ccccc1)C2 (stereo not given in full) [methylatropine-nitrate]",
    "data_value": 95.3
  },
  {
    "compound": "CN1CCC(=C2c3ccccc3CCc3sccc32)CC1",
    "data_value": 97.9
  },
  {
    "compound": "COc1cc(N2CCC(N(C)C)CC2)ccc1Nc1ncc(Cl)c(Nc2ccccc2P(C)(C)=O)n1",
    "data_value": 103
  },
  {
    "compound": "COc1ccc(Cc2nc(O)c3c(C)nc([C@@H](CCCc4ccccc4)[C@@H](C)O)n3n2)cc1OC",
    "data_value": 98.5
  },
  {
    "compound": "CC(C)[C@H](CO)Nc1nc(Nc2cc(N)cc(Cl)c2)c2ncn(C(C)C)c2n1",
    "data_value": 96.9
  },
  {
    "compound": "N#Cc1cc2c(OCC(O)CN3CCN(C(c4ccccc4)c4ccccc4)CC3)cccc2[nH]1 (stereo not given)",
    "data_value": 95.5
  },
  {
    "compound": "CN1CCN(CCCN2c3ccccc3Sc3ccc(S(=O)(=O)N(C)C)cc32)CC1",
    "data_value": 94.9
  },
  {
    "compound": "O=[N+]([O-])c1ccc2c(c1)S(=O)(=O)C=C2",
    "data_value": 99.1
  },
  {
    "compound": "OC(CCN1CCCCC1)(c1ccccc1)C1CC2C=CC1C2 (stereo not given)",
    "data_value": 95.2
  },
  {
    "compound": "Cc1ccc(O)c([C@H](CCN(C(C)C)C(C)C)c2ccccc2)c1",
    "data_value": 102
  },
  {
    "compound": "CCC[C@@H]1C[C@@H](C(=O)N[C@@H]([C@H]2O[C@H](SC)[C@H](O)[C@@H](O)[C@H]2O)[C@H](C)Cl)N(C)C1 [CLINDAMYCIN HYDROCHLORIDE]",
    "data_value": 93.8
  },
  {
    "compound": "O=C(/C=C/c1ccccc1)NCCO",
    "data_value": 99.4
  },
  {
    "compound": "O=C1[C@H](Cc2ccc(O)cc2)N2C(=O)CCN(C(=O)NCc3ccccc3)[C@H]2CN1Cc1cccc2ccccc12",
    "data_value": 91.3
  },
  {
    "compound": "CN(C)Cc1c(C(=O)NCCOc2ccc(C(=O)NO)cc2)oc2ccccc12",
    "data_value": 95.7
  },
  {
    "compound": "CCCCCCCCNC(C)C(O)c1ccc(SC(C)C)cc1 (stereo not given)",
    "data_value": 93
  },
  {
    "compound": "COc1ccc(CNC(=O)c2sc3nc(C)cc(C)c3c2N)cc1",
    "data_value": 106
  }
]
